Listing: MIC of selected compounds
System: MRSA (ATCC33591)
Assay: in vitro antibacterial activity
Format: cell-based, methicillin-resistant Staphylococcus aureus
Conditions: Staphylococcus aureus, ATCC33591|MRSA, read-out: MIC, MRSA

{"compound": "CCCCCCOc1c(OC)cc(NC(C)CCCNC(=O)C(N)CCCN)c2nc(C(C)(C)C)ccc12 (centres unmarked)", "tgt": "MRSA (ATCC33591)", "inequality_operator": ">", "MIC [µg/mL]": 20}
{"compound": "CCCCCCCOc1c(OC)cc(NC(C)CCCN)c2nc(C(C)(C)C)cc(C)c12 (centres unmarked)", "tgt": "MRSA (ATCC33591)", "inequality_operator": "=", "MIC [µg/mL]": 2.5}
{"compound": "CCCCCCOc1c(OC)cc(NC(C)CCCN)c2nc(C(C)(C)C)ccc12 (centres unmarked)", "tgt": "MRSA (ATCC33591)", "inequality_operator": "=", "MIC [µg/mL]": 5}
{"compound": "CCCCOc1c(OC)cc(NC(C)CCCNC(=O)C(N)CCCN)c2nc(C(C)(C)C)ccc12 (centres unmarked)", "tgt": "MRSA (ATCC33591)", "inequality_operator": ">", "MIC [µg/mL]": 20}
{"compound": "CCCCCOc1c(OC)cc(NC(C)CCCNC(=O)C(N)CCCCN)c2nc(C(C)(C)C)ccc12 (centres unmarked)", "tgt": "MRSA (ATCC33591)", "inequality_operator": ">", "MIC [µg/mL]": 20}
{"compound": "CCCCCCCCOc1c(OC)cc(NC(C)CCCN)c2nc(C(C)(C)C)cc(C)c12 (centres unmarked)", "tgt": "MRSA (ATCC33591)", "inequality_operator": ">", "MIC [µg/mL]": 20}
{"compound": "CCCCCCOc1c(OC)cc(NC(C)CCCN)c2nc(C(C)(C)C)cc(C)c12 (centres unmarked)", "tgt": "MRSA (ATCC33591)", "inequality_operator": "=", "MIC [µg/mL]": 5}
{"compound": "CCCCCOc1c(OC)cc(NC(C)CCCNC(=O)C(N)CC(C)C)c2nc(C(C)(C)C)ccc12 (centres unmarked)", "tgt": "MRSA (ATCC33591)", "inequality_operator": "=", "MIC [µg/mL]": 10}

----------
Test system: C. neoformans ATCC90113
Assay: in vitro antifungal activity
Assay type: cell-based, Cryptococcus neoformans
Conditions: Cryptococcus neoformans, ATCC90113, read-out: C. neoformans MFC

{"molecule": "CCCCCOc1c(OC)cc(NC(C)CCCN)c2nc(C(C)(C)C)ccc12 (stereo not drawn) [compound 46]", "MFC": "> 20 µg/mL"}
{"molecule": "CCCCCOc1c(OC)cc(NC(C)CCCNC(=O)C(N)CCCCN)c2nc(C(C)(C)C)ccc12 (stereo not drawn) [compound 92]", "MFC": "> 20 µg/mL"}
{"molecule": "CCCCCCCOc1c(OC)cc(NC(C)CCCNC(=O)C(N)CCCCN)c2nc(C(C)(C)C)ccc12 (stereo not drawn) [compound 109]", "MFC": "> 20 µg/mL"}
{"molecule": "CCCCCCCOc1c(OC)cc(NC(C)CCCNC(=O)C(N)CCCN)c2nc(C(C)(C)C)ccc12 (stereo not drawn) [compound 110]", "MFC": "> 20 µg/mL"}
{"molecule": "CCCCCOc1c(OC)cc(NC(C)CCCN)c2nc(C(C)(C)C)cc(C)c12 (stereo not drawn) [compound 51]", "MFC": "20 µg/mL"}
{"molecule": "CCCCCCOc1c(OC)cc(NC(C)CCCN)c2nc(C(C)(C)C)ccc12 (stereo not drawn) [compound 47]", "MFC": "5 µg/mL"}
{"molecule": "CCCCCCOc1c(OC)cc(NC(C)CCCNC(=O)C(N)Cc2cc3ccccc3[nH]2)c2nc(C(C)(C)C)ccc12 (stereo not drawn) [compound 108]", "MFC": "10 µg/mL"}
{"molecule": "CCCCOc1c(OC)cc(NC(C)CCCNC(=O)C(N)CCCN)c2nc(C(C)(C)C)ccc12 (stereo not drawn) [compound 91]", "MFC": "> 20 µg/mL"}
{"molecule": "CCCCCCOc1c(OC)cc(NC(C)CCCNC(=O)C(C)N)c2nc(C(C)(C)C)ccc12 (stereo not drawn) [compound 107]", "MFC": "> 20 µg/mL"}
